Target: T1, monkey antigen protein (monkey CD112R, Uniprot ID: A0A2K5WVV8) (monkey, UniProt A0A2K5WVV8 41-171)
T1 sequence: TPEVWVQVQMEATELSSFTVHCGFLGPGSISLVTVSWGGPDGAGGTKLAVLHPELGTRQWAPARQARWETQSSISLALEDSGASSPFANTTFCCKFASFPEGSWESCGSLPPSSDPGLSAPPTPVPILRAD
Experiment: ELISA, monkey antigen protein (as Example 6.1)
propertyLabel: EC50 (nM)

[
  {
    "binder": "C67 (antibody, human IgG1, kappa, V domains shown) VH: EAQLQQSGPELVKPGASVKISCKASGYTFTDYYMNWVKQSHGKSLDWIGDINPDNGGSTYNQKFKGKATLTVDKSSSTAYMELRSLTSEDSAVYYCSASGPPYVLLDYWGQGTSVIVSS VL: DIQMTQSPASLSASVGETVTITCQTSENIYSYLAWYQQKQGKSPQLLVYNTQTLAEGVPSRFSGSRSGAQFSLKINSLQPEDFGSYYCQHHYGVPLTFGAGTKLELKR",
    "observedMeasurement": 0.08
  },
  {
    "binder": "C56-2 (antibody, human IgG1, kappa, V domains shown) VH: EVQLVESGGGLVKPGGSLKLSCAASGFTFSDYALSWVRQTPEKRLEWVATIRDGGSYTYYSDNEKGRFTISRDNAKNNLYLQMSHLRSEDTAMYYCTRDQVNRGWFTYWGQGTLVTVSA VL: QVILTQSPAIMSASLGERVTMTCSASSSVSSSYFHWFQQKPGSSPKLWIYSTSNLASGVPPRFSGSGSGTSYSLTISSMEAEDAATYYCHQHHRSPLTFGAGTKLELKR",
    "observedMeasurement": 0.044
  }
]
